molecular target: Sigma non-opioid intracellular receptor 1 (Cavia porcellus); assay: Relative affinity for sigma-1 compared to sigma-2 type receptors
OBSERVATION TYPE: Ratio

Illustrative cases are given below, each with its answer.
SAMPLE SMILES	TARGET OR TEST SYSTEM	OBSERVATION TYPE	RESULT VALUE
CN(CCN1CCCC1)C(=O)Cc1ccccc1[N+](=O)[O-]	Sigma non-opioid intracellular receptor 1 (Cavia porcellus)	Ratio	0.49
CN(CCc1cccc([N+](=O)[O-])c1)CCN1CCCC1	Sigma non-opioid intracellular receptor 1 (Cavia porcellus)	Ratio	0.07
CN(CCc1ccc(N)cc1)CCN1CCCC1	Sigma non-opioid intracellular receptor 1 (Cavia porcellus)	Ratio	0.28

Each compound below has a recorded value; state its Ratio.
1. CN(CCc1ccccc1[N+](=O)[O-])CCN1CCCC1
2. COc1ccccc1CCN(C)CCN1CCCC1
3. CN(CCc1ccc([N+](=O)[O-])cc1)CCN1CCCC1
4. COc1cccc(CCN(C)CCN2CCCC2)c1
5. COc1ccc(CCN(C)CCN2CCCC2)cc1
6. COc1cccc(CC(=O)N(C)CCN2CCCC2)c1
7. CN(CCN1CCCC1)C(=O)Cc1cccc([N+](=O)[O-])c1
8. CN(CCN1CCCC1)C(=O)Cc1ccc([N+](=O)[O-])cc1

Result string:
[0.02, 0.11, 0.07, 0.11, 0.12, 2.8, 3, 1.5]

Dear reader, for each entry below, please note its Ratio.
1. CN(CCc1cccc(N)c1)CCN1CCCC1
2. COc1ccc(CC(=O)N(C)CCN2CCCC2)cc1
3. CN(CCc1ccccc1N)CCN1CCCC1

Result string:
1. 0.26
2. 1.8
3. 0.45
